Each entry below lists one item and its recorded koff value.
Target: T1, human IL-23 (human, UniProt Q9NPF7 20-189; P29460 23-328)
T1 construct: also called hIL-23; human recombinant IL-23
T1 sequence (looked up) 1: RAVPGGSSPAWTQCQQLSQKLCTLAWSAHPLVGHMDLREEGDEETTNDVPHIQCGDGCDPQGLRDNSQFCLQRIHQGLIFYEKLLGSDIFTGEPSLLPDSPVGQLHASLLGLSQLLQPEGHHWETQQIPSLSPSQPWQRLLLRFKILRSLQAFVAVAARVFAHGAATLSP
T1 sequence (looked up) 2: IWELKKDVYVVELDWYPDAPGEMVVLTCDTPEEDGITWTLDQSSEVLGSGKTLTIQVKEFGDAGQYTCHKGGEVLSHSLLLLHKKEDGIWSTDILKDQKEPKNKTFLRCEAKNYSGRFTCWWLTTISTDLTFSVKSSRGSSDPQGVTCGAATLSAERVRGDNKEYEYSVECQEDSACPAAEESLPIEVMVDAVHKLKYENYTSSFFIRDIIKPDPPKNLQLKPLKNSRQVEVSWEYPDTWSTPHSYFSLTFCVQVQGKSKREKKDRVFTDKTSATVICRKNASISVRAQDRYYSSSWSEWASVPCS
Test: SPR, Adnectin captured by anti-His mAb, IL-23 injected
Reported metric: koff (s⁻¹)

Binder	Value
1550 E03 (designed binder, captured by anti-His mAb) MGVSDVPRDLEVVAATPTSLLISWGHYPLHIRYYRITYGETGGNSPVQEFTVPRMRHTATISGLKPGVDYTITVYAVTYYSEELYKYIPISINYRTEIDKPSQHHHHHH	0.000186
1486D05 (designed binder, captured by anti-His mAb) MGVSDVPRDLEVVAATPTSLLISWGHYPLHVRYYRITYGETGGNSPVQEFTVPHQRYTATISGLKPGVDYTITVYAVTYYNEADYSQIPISINYRTEIDKPSQHHHHHH	0.000344
1491A05 (designed binder, captured by anti-His mAb) MGVSDVPRDLEVVAATPTSLLISWGHYPLHVRYYRITYGETGGNSPVQEFTVPSQVYTATISGLKPGVDYTITVYAVTYYAQENYKEIPISINYRTEIDKPSQHHHHHH	0.000408
1550H05 (designed binder, captured by anti-His mAb) MGVSDVPRDLEVVAATPTSLLISWGHYPLHVRYYRITYGETGGNSPVQEFTVPRQIYTATISGLKPGVDYTITVYAVTYYNEADYSQIPISINYRTEIDKPSQHHHHHH	0.000212
